# pIC50 per entry
- Tested on: Trypanosoma cruzi
- method summary: GSK_TCAKS: pIC50 H2C9 Imaging: H9c2 Host Cardiomyocytes. […] Cells were then washed once with PBS before infection. T. cruzi trypomastigotes, collected at days 5 to 8 after infection from LLC-MK2 parasite infected cultures, were allowed to swim out for 4h at 37C from a centrifuged pellet (2,500 rpm/10 min/room temperature). Trypomastigotes were then collected and counted in a CASY Cell Counter. Trypomastigotes, in supplemented DMEM, were added to H9c2 cultures in a multiplicity of infection of 1 and incubated for 18 h. Cells were washed once with PBS before incubation of the infected H9c2 monolayer with trypsin (Life-Technologies) to detach cells from the flask. Cells were counted in a CASY Cell Counter using a 150 um capillary and their density set at 5 * 10^4 cells per mL in supplemented assay DMEM. Infected H9c2 were dispensed into 384-well poly-lysine coated assay plates at 50uL per well using a Multidrop Combi dispenser. After seeding them, the plates were incubated at 37C, 5% CO2 for 72h. Cultures were then fixed and stained by addition of 50 uL of a solution containing 8% formaldehyde and 4 uM DRAQ5 DNA dye (BioStatus, UK) per well. […] Five images were collected per well for reliable statistical analysis. Automated image analysis was performed with a script developed on Acapella High Content Imaging and Analysis Software (PerkinElmer). Output: Number of H9c2 Host Cardiomyocytes nuclei to determine drug-related cytotoxicity.
- Assay type: functional, organism-based, Rattus norvegicus
- protocol conditions: H9c2, 4 h
pIC50: −log10 of the molar value.

// known answers, use as guide
                                   compound  experimental_system  readout  reported_measurement
0  COc1ccc2ncc(=O)n(CCN3CCOC(CNCc4ccc(C(F)(F)F)cc4F)C3)c2n1 (stereo not drawn)    Trypanosoma cruzi    pIC50                < 4.30
1  CCN(Cc1ccncc1)Cc1ccc(NC(=O)c2cc(-c3ccc(F)cc3)n[nH]2)cc1    Trypanosoma cruzi    pIC50                < 4.30

Switching to the query record.
INPUT: # return pIC50 of Cc1nn2c(O)c3c(nc2c1-c1ccc(F)cc1)CCCC3 (system: Trypanosoma cruzi)
OUTPUT: < 4.30

* * *

- Tested on: Leishmania donovani
- method summary: GSK_TCAKS: pIC50 Leishmania donovani Imaging: Amastigotes/Macrophages. Assay plates (384-well) were prepared by adding 250nL of compound to each well. For single shot assay, the final compound concentration was 5 uM. […] Automated image analysis was performed with a script developed on Acapella High Content Imaging and Analysis Software (PerkinElmer). Output: Average number of amastigotes per macrophage cell were reported for each well.
- Format: functional, organism-based, Homo sapiens
- protocol conditions: THP-1
readout: pIC50
Hey, just a heads up that pIC50 is the negative log base 10 of the concentration in molar.

// known answers, use as guide
                         compound_structure  readout  reported_measurement
0               c1ccc(Nc2nc3ccccc3[nH]2)nc1    pIC50                  5.10
1     Nc1nc(-c2ccccn2)nc(N)c1Cc1c(F)cccc1Cl    pIC50                  6.00
2  O=C1NCc2cccc(Nc3nc(N[C@H]4CC[C@H](O)CC4)ncc3Br)c21    pIC50                  6.90

Switching to the query record.
INPUT: Respond only with pIC50 recorded for COc1ccc(CNc2cc(C3CC3)nc(-c3nccn3C)n2)cc1
OUTPUT: 6.10

* * *

- experimental system: Sterol 14-alpha demethylase (Trypanosoma cruzi (strain CL Brener), UniProt Q7Z1V1)
- Sequence (Q7Z1V1 whole entry): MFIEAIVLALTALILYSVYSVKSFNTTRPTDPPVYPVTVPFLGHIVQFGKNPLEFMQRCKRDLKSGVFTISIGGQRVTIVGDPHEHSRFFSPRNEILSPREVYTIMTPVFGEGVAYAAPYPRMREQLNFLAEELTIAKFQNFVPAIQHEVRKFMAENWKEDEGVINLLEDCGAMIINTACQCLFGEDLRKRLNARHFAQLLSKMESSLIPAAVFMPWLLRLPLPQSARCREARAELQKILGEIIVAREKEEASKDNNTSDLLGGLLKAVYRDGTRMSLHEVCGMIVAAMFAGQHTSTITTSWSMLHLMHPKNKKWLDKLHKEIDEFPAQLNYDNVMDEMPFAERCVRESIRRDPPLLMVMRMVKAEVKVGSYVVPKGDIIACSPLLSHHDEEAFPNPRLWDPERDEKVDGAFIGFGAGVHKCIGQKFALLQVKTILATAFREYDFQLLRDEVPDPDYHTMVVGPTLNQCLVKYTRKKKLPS
- method summary: GSK_TCAKS: pIC50 CYP51 from Trypanosoma cruzi.
- Type: functional
pIC50: −log10 of the molar value.
readout: pIC50

In [3]: df
Out[3]:
                         compound_structure  reported_measurement
0  CC(=O)Nc1ccc(CN2CCC(N3CC(c4ccccc4)(c4ccccc4)OCC3=O)CC2)cc1                < 4.00
1     Cc1nn2c(O)c3c(nc2c1-c1ccc(F)cc1)CCCC3                < 4.00

Switching to the query record.
INPUT: # return pIC50 of N#Cc1cccc(CN2CCC(c3nc(-c4ccc(C(F)(F)F)nc4)no3)CC2)c1 (system: Sterol 14-alpha demethylase (Trypanosoma cruzi (strain CL Brener), UniProt Q7Z1V1))
OUTPUT: < 4.00

* * *

# pIC50 per entry
- experimental system: Sterol 14-alpha demethylase (Trypanosoma cruzi (strain CL Brener), UniProt Q7Z1V1)
- method summary: GSK_TCAKS: pIC50 CYP51 from Trypanosoma cruzi.
Hey, just a heads up that pIC50 is the negative log base 10 of the concentration in molar.

>>> df
                                   compound  readout  reported_measurement
0  CN(CC1CCCO1)S(=O)(=O)c1ccc(C(=O)Nc2nc(-c3ccccn3)cs2)cc1 (configuration not stated)    pIC50                  5.10
1  O=C(CN(Cc1ccccn1)Cc1ccccn1)NCc1ccc(-c2csnn2)cc1    pIC50                  4.40
2  COc1cc(NC(=O)Nc2cccc(CNC(=O)OC3CCCCC3)c2)ccc1-c1cnco1    pIC50                  4.60
3  COc1ccc2ncc(F)c(NC(=O)[C@]3(O)CC[C@@H](NCc4ccc5c(c4)OCCO5)CC3)c2n1    pIC50                  4.20

Switching to the query record.
INPUT: Respond only with pIC50 recorded for COc1ccc(-c2cnc(NC(=O)c3cc(-c4ccccn4)n[nH]3)n2C)cc1
OUTPUT: 4.80

* * *

- experimental system: Sterol 14-alpha demethylase (Trypanosoma cruzi (strain CL Brener), UniProt Q7Z1V1)
- method summary: GSK_TCAKS: pIC50 CYP51 from Trypanosoma cruzi.
readout: IC50

>>> df
                                   compound  readout  reported_measurement
0  Cc1c(CNC(=O)c2ccc(Cn3cc(Cl)c([N+](=O)[O-])n3)cc2)cnn1C     IC50              > 100 µM

INPUT: Respond only with IC50 recorded for Oc1c(-c2nnc(Cc3ccc(F)cc3)[nH]2)ncc2cccnc12
OUTPUT: > 100 µM

INPUT: Respond only with IC50 recorded for Cc1nc2c(-c3nc(-c4ccc(N)cc4)n[nH]3)cccn2c1C
OUTPUT: > 100 µM

INPUT: Respond only with IC50 recorded for Cc1ccc(S(=O)(=O)Nc2ccc(CN3CCN(C(=O)c4cccc(C#N)c4)CC3)cc2)cc1
OUTPUT: > 100 µM

INPUT: Respond only with IC50 recorded for O=C(C1CCCCC1)N1CCN(c2nnc(-c3ccccc3)c3ccccc23)CC1
OUTPUT: > 100 µM

INPUT: Respond only with IC50 recorded for O=C(NCCc1csc(-c2cccc(F)c2)n1)c1ccco1
OUTPUT: > 100 µM

INPUT: Respond only with IC50 recorded for CCCCNc1nccc(-c2c(-c3ccc(F)cc3)nn3c(N4CCOCC4)cccc23)n1
OUTPUT: > 100 µM

INPUT: Respond only with IC50 recorded for CCOc1ccc(OCC(=O)N2c3ccccc3CC2C(=O)NC)cc1 (centres undefined)
OUTPUT: > 100 µM

INPUT: Respond only with IC50 recorded for Cc1c(C#N)c([N+](=O)[O-])nn1Cc1cccc(Cl)c1Cl
OUTPUT: > 100 µM

* * *

- experimental system: Sterol 14-alpha demethylase (Trypanosoma cruzi (strain CL Brener))
- method summary: GSK_TCAKS: pIC50 CYP51 from Trypanosoma cruzi.
# IC50 per entry

INPUT: Respond only with IC50 recorded for Cc1cccc(NS(=O)(=O)c2cnc3sc(C)cn3c2=O)c1
OUTPUT: > 100 µM

INPUT: Respond only with IC50 recorded for O=C(Nc1ncc([N+](=O)[O-])s1)C1CC1
OUTPUT: > 100 µM

* * *

- Tested on: Trypanosoma cruzi
- method summary: GSK_TCAKS: pIC50 Trypanosoma cruzi viability assay using beta-GAL activity. This assay was run at single shot at 5uM compound concentration per well. The biological reagents consisted of NIH-3T3 host cells and trypomastigotes parasitic cells; both cell types were set to a 3.3 * 10^5 cells/mL dilution in assay DMEM by means of a CASY cell counter device using a 60um capillary. 6 uL of the mixture were dispensed per well (about 1 * 10^3 host-cells and 1 * 10^3 parasites) with a Multidrop Combi dispenser. […] In all wells, the percentage of DMSO never exceeded 0.5%. Plates incubated for four days at 37C, 5% CO2. The substrate used for the assay fluorescence intensity (FLINT) readout was resorufin-beta-D-galactopiranoside (Sigma-Aldrich) at 5uM per well. It was diluted in PBS supplemented with the soft detergent Igepal (Fluka).
- Format: functional, organism-based, Mus musculus
- protocol conditions: Tulahuen, NIH3T3
readout: log10 of IC50 (log10 of the value in nM)
// units: nM (pre-log); metric: IC50; scale: log10

>>> print(df.to_string())
                                   compound  experimental_system  reported_measurement
0  COc1ccc(C(C)N(C)c2ncc3c(N)nc(N)nc3n2)cc1F (configuration not stated)    Trypanosoma cruzi                  1.90

INPUT: Respond only with log10 of IC50 recorded for CC(c1ccc2c(c1)CCCC2)N(C)c1ncc2c(N)nc(N)nc2n1 (configuration not stated)
OUTPUT: 1.50

INPUT: Respond only with log10 of IC50 recorded for Cc1ccc(S(=O)(=O)Cn2nnnc2C(c2cccnc2)N2CCN(c3ccccc3)CC2)cc1 (configuration not stated)
OUTPUT: 2.70

INPUT: Respond only with log10 of IC50 recorded for Cc1cc(Oc2cc(Cl)c(Cl)cc2Cl)n2ncnc2n1
OUTPUT: 3.70

INPUT: Respond only with log10 of IC50 recorded for Cn1ccnc1-c1nc(NCc2ccccc2Cl)cc(C2CC2)n1
OUTPUT: 2.80
